Consider molecules characterized by their pKi with GST-tagged-Wee1 kinase (Homo sapiens, UniProt P30291).
Sequence (P30291 whole entry): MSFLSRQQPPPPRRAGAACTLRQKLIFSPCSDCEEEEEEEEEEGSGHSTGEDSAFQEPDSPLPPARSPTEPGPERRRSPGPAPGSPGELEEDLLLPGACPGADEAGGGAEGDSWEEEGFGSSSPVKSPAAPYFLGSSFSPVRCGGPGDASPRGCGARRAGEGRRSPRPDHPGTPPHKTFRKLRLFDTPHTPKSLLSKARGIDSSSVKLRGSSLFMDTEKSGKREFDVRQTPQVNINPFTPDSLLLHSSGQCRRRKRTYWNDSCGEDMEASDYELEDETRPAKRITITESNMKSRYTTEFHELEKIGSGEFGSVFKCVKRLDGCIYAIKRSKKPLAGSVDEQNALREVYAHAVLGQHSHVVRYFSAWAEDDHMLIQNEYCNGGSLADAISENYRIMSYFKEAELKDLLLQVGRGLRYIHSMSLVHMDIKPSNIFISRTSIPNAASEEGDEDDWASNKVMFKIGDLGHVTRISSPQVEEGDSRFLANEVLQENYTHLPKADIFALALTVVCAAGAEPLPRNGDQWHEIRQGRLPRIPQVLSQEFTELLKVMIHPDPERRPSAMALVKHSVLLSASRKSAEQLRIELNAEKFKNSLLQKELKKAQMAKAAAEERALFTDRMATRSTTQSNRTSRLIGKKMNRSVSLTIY
pKi: −log10 of the molar value.

{"molecule": "CCN(CC)S(=O)(=O)c1ccc(Nc2ncc3c(=O)n(-c4ccccc4Cl)c4nccn4c3n2)cc1", "target": "GST-tagged-Wee1 kinase (Homo sapiens, UniProt P30291)", "pKi": "7.00 to 8.00"}
{"molecule": "CCN(CCN(C)C)c1ccc(Nc2ncc3c(=O)n(-c4c(Cl)cccc4Cl)c4nccn4c3n2)cc1", "target": "GST-tagged-Wee1 kinase (Homo sapiens, UniProt P30291)", "pKi": "> 8.00"}
{"molecule": "CN1CCN(c2ccc(Nc3ncc4c(=O)n(-c5ccccc5C(F)(F)F)c5nccn5c4n3)cc2)CC1", "target": "GST-tagged-Wee1 kinase (Homo sapiens, UniProt P30291)", "pKi": "7.00 to 8.00"}
{"molecule": "CCc1cc(Nc2ncc3c(=O)n(-c4ccccc4Cl)c4nccn4c3n2)ccc1N1CCN(C)CC1", "target": "GST-tagged-Wee1 kinase (Homo sapiens, UniProt P30291)", "pKi": "> 8.00"}
{"molecule": "O=c1c2cnc(Nc3ccc4c(c3)CC(NC3CC3)C4)nc2n2ccnc2n1-c1c(F)cccc1Cl (stereo not drawn)", "target": "GST-tagged-Wee1 kinase (Homo sapiens, UniProt P30291)", "pKi": "> 8.00"}

QUERY: Entry "O=c1c2cnc(Nc3ccncc3)nc2n2ccnc2n1-c1ccccc1Cl" , system GST-tagged-Wee1 kinase (Homo sapiens, UniProt P30291): what pKi was measured?
RESULT: < 7.00

QUERY: How about "CN1Cc2cc(Nc3ncc4c(=O)n(-c5c(F)cccc5Cl)c5nccn5c4n3)ccc2C(C)(C)C1" ?
RESULT: > 8.00

QUERY: How about CN(C)C1Cc2ccc(Nc3ncc4c(=O)n(-c5c(F)cccc5Cl)c5nccn5c4n3)cc2C1 (stereo not drawn) ?
RESULT: > 8.00

QUERY: How about "CN1CCN(CCc2ccc(Nc3ncc4c(=O)n(-c5c(Cl)cccc5Cl)c5nccn5c4n3)cc2)CC1" ?
RESULT: > 8.00

QUERY: How about "O=c1c2cnc(Nc3ccc(-c4ccc5cccnc5n4)cc3)nc2n2ccnc2n1-c1ccccc1Cl" ?
RESULT: 7.00 to 8.00

QUERY: How about "O=c1c2cnc(Nc3ccc4c(c3)CN(CCO)CC4)nc2n2ccnc2n1-c1ccccc1Cl" ?
RESULT: > 8.00

QUERY: How about "Cc1cc(Nc2ncc3c(=O)n(-c4ccccc4Cl)c4nccn4c3n2)ccc1N1CCN(C)CC1" ?
RESULT: > 8.00

QUERY: How about "CN1Cc2cc(Nc3ncc4c(=O)n(-c5c(Cl)cccc5Cl)c5nccn5c4n3)ccc2C2(CC2)C1" ?
RESULT: > 8.00

QUERY: How about "O=c1c2cnc(Nc3ccc(N4CCC[C@H]4C(F)(F)F)cc3)nc2n2ccnc2n1-c1ccccc1Cl" ?
RESULT: 7.00 to 8.00

QUERY: How about "CN(C)C1CCN(C(=O)c2ccc(Nc3ncc4c(=O)n(-c5c(Cl)cccc5Cl)c5nccn5c4n3)cc2)CC1" ?
RESULT: > 8.00

QUERY: How about "CN(C)[C@@H]1CCN(c2ccc(Nc3ncc4c(=O)n(-c5c(Cl)cccc5Cl)c5nccn5c4n3)cc2)C1" ?
RESULT: > 8.00

QUERY: How about "CN(C)[C@@H]1CCN(c2ccc(Nc3ncc4c(=O)n(-c5ccccc5Cl)c5nccn5c4n3)cc2)C1" ?
RESULT: > 8.00

QUERY: How about "CC1(C)CN(CC(F)(F)F)Cc2cc(Nc3ncc4c(=O)n(-c5c(Cl)cccc5Cl)c5nccn5c4n3)ccc21" ?
RESULT: 7.00 to 8.00

QUERY: How about "CC1(C)CN(Cc2cccnc2)Cc2cc(Nc3ncc4c(=O)n(-c5ccccc5Cl)c5nccn5c4n3)ccc21" ?
RESULT: > 8.00

---

Consider compounds characterized by their Ki with UniProt:P30291.

Example compounds with recorded Ki:
{"structure_as_smiles": "O=c1c2cnc(Nc3ccc(N4CCNCC4)nc3)nc2n2ccnc2n1-c1c(Cl)cc(F)cc1Cl", "target": "UniProt:P30291", "reading": "< 10 nM"}
{"structure_as_smiles": "O=c1c2cnc(Nc3ccc(N4C[C@H]5C[C@@H]4CN5)cc3)nc2n2ccnc2n1-c1c(Cl)cccc1Cl", "target": "UniProt:P30291", "reading": "< 10 nM"}

QUERY: Fill in the blank: the reported Ki of "CC(=O)N1Cc2cc(Nc3ncc4c(=O)n(-c5c(F)cccc5Cl)c5nccn5c4n3)ccc2C(C)(C)C1" is ____.
RESULT: < 10 nM

QUERY: How about "CC(=O)N1CCc2cc(Nc3ncc4c(=O)n(-c5c(Cl)cccc5Cl)c5nccn5c4n3)ccc2C1" ?
RESULT: < 10 nM

QUERY: How about "CN1CCN(c2ccc(Nc3ncc4c(=O)n(-c5c(F)cccc5F)c5nccn5c4n3)cc2)CC1" ?
RESULT: 10 to 100 nM

QUERY: How about "CCN1CCN(c2ccc(Nc3ncc4c(=O)n(-c5ccccc5Cl)c5nccn5c4n3)nc2)CC1" ?
RESULT: > 100 nM

QUERY: How about "NC(=O)C1CCN(c2ccc(Nc3ncc4c(=O)n(-c5ccccc5Cl)c5nccn5c4n3)cc2)CC1" ?
RESULT: < 10 nM

QUERY: How about "COc1cc(Nc2ncc3c(=O)n(-c4c(Cl)cccc4Cl)c4nccn4c3n2)ccc1N1CCN(C)CC1" ?
RESULT: < 10 nM

QUERY: How about "CC(C)(C)OC(=O)N1CCc2ccc(Nc3ncc4c(=O)n(-c5ccccc5Cl)c5nccn5c4n3)cc2C1" ?
RESULT: 10 to 100 nM

---

# Ki listing for each entry below
molecular target: GST-tagged-Wee1 kinase (Homo sapiens); construct: purchased Carnabio (Carna Biosciences) 05-177; experiment: Wee1 time-resolved fluorescence equilibrium binding assay (displacement of Oregon Green-labeled ATP-competitive kinase probe); conditions: read-out: Wee-1 inhibition (Ki)

{"compound": "O=c1c2cnc(Nc3ccc(-c4nccs4)cc3)nc2n2ccnc2n1-c1ccccc1Cl [Example 350]", "reading": "10 to 100 nM"}
{"compound": "O=c1c2cnc(Nc3ccc(-n4ccnc4)cc3)nc2n2ccnc2n1-c1ccccc1Cl [Example 80]", "reading": "10 to 100 nM"}
{"compound": "CN1Cc2cc(Nc3ncc4c(=O)n(-c5c(Cl)cc(F)cc5Cl)c5nccn5c4n3)ccc2C(C)(C)C1 [Example 212]", "reading": "< 10 nM"}
{"compound": "CC1(C)CN(CCF)Cc2cc(Nc3ncc4c(=O)n(-c5c(F)cccc5Cl)c5nccn5c4n3)ccc21 [Example 281]", "reading": "< 10 nM"}

Please examine the following record next.
QUERY: Fill in the blank: the reported Ki of O=c1cn[nH]c2ccc(Nc3ncc4c(=O)n(-c5c(Cl)cccc5Cl)c5nccn5c4n3)cc12 [Example 213] is ____.
RESULT: < 10 nM

---

pKi: −log10 of the molar value.
Consider molecules characterized by their pKi with GST-tagged-Wee1 kinase (Homo sapiens, UniProt P30291).

Example molecules with recorded pKi:
{"molecule": "CC1(C)CN(CC(F)(F)F)Cc2cc(Nc3ncc4c(=O)n(-c5ccccc5Cl)c5nccn5c4n3)ccc21 [Example 162]", "reading": "7.00 to 8.00"}
{"molecule": "CN1Cc2cc(Nc3ncc4c(=O)n(-c5ccccc5Cl)c5nccn5c4n3)ccc2C1(C)C [Example 146]", "reading": "> 8.00"}
{"molecule": "CN(C)C1CCN(c2ccc(Nc3ncc4c(=O)n(-c5ccccc5Cl)c5nccn5c4n3)cc2)CC1 [Example 191]", "reading": "> 8.00"}

QUERY: Entry CC(C)CC(N(C)C)C1(c2ccc(Nc3ncc4c(=O)n(-c5c(Cl)cccc5Cl)c5nccn5c4n3)cc2)CCC1 (stereo not shown) [Example 196] , system GST-tagged-Wee1 kinase (Homo sapiens, UniProt P30291): what pKi was measured?
RESULT: > 8.00

---

Consider compounds characterized by their pKi with GST-tagged-Wee1 kinase (Homo sapiens, UniProt P30291).
pKi: −log10 of the molar value.

{"compound": "N#Cc1cccc(CN2CCN(c3ccc(Nc4ncc5c(=O)n(-c6ccccc6Cl)c6nccn6c5n4)cc3)CC2)c1 [Example 31]", "pKi": "7.00 to 8.00"}
{"compound": "CC(C)N1CCN(c2ccc(Nc3ncc4c(=O)n(-c5ccccc5Cl)c5nccn5c4n3)cc2F)CC1 [Example 33]", "pKi": "> 8.00"}
{"compound": "CN1C(C)(C)c2ccc(Nc3ncc4c(=O)n(-c5ccccc5Cl)c5nccn5c4n3)cc2C1(C)C [Example 147]", "pKi": "> 8.00"}
{"compound": "Nc1ccc(Nc2ncc3c(=O)n(-c4ccccc4Cl)c4nccn4c3n2)cc1 [Example 56]", "pKi": "7.00 to 8.00"}
{"compound": "CN1Cc2cc(Nc3ncc4c(=S)n(-c5ccccc5Cl)c5nccn5c4n3)ccc2C2(CC2)C1 [Example 355]", "pKi": "> 8.00"}

QUERY: Fill in the blank: the reported pKi of O=c1c2cnc(Nc3ccc(CN4CCOCC4)cc3)nc2n2ccnc2n1-c1ccccc1Cl [Example 78] is ____.
RESULT: > 8.00

QUERY: How about O=c1c2cnc(Nc3ccc4c(c3)CC(NC3CC3)C4)nc2n2ccnc2n1-c1c(Cl)cccc1Cl (centres unmarked) [Example 295] ?
RESULT: > 8.00

QUERY: How about O=c1c2cnc(Nc3ccccc3)nc2n2ccnc2n1-c1c(Cl)cccc1Cl [Example 84] ?
RESULT: > 8.00
